- method-notes: Qualitative solubility determination of Nor-UDCA with 20 solvents
- Assay type: physicochemical
- assay-setup: dichloromethane, organic solvent or mixture, thermodynamic from solid; solvent Dichlormethane
- Description: The polymorph screening study was carried out in two phases. In Phase 1, the synthesized Nor-UDCA, designated Form A, was characterised by XRPD, digital imaging, thermal analysis (DSC and TGMS). The purity of the material was checked by HPLC/RI. […] Additionally, the solids recovered by evaporation of solutions used in the solubility experiments were analyzed by XRPD and digital imaging to obtain information on the potential form formation of new forms of Nor-UDCA (see Table 2). […]
measured-metric: solubility

CC(CC(=O)O)[C@H]1CCC2[C@H]3C(CC[C@@]21C)[C@@]1(C)CCC(O)C[C@H]1C[C@@H]3O (stereo partly shown) | < 13 mg/mL

----------
- method-notes: Qualitative solubility determination of Nor-UDCA with 20 solvents
- Type: physicochemical
- assay-setup: organic solvent or mixture, thermodynamic from solid; solvent Nitrobenzene
measured-metric: solubility

CC(CC(=O)O)[C@H]1CCC2[C@H]3C(CC[C@@]21C)[C@@]1(C)CCC(O)C[C@H]1C[C@@H]3O (stereo partly shown) | < 13 mg/mL

----------
- method-notes: Qualitative solubility determination of Nor-UDCA with 20 solvents
- Format: physicochemical
- assay-setup: organic solvent or mixture, thermodynamic from solid; solvent Cyclohexane
- Procedure: The polymorph screening study was carried out in two phases. In Phase 1, the synthesized Nor-UDCA, designated Form A, was characterised by XRPD, digital imaging, thermal analysis (DSC and TGMS). The purity of the material was checked by HPLC/RI. […] Additionally, the solids recovered by evaporation of solutions used in the solubility experiments were analyzed by XRPD and digital imaging to obtain information on the potential form formation of new forms of Nor-UDCA (see Table 2). […]
measured-metric: solubility

CC(CC(=O)O)[C@H]1CCC2[C@H]3C(CC[C@@]21C)[C@@]1(C)CCC(O)C[C@H]1C[C@@H]3O (stereo partly shown) [Nor-UDCA] | < 14 mg/mL

----------
- method-notes: Qualitative solubility determination of Nor-UDCA with 20 solvents
- Assay type: physicochemical
- assay-setup: organic solvent or mixture, thermodynamic from solid; solvent 1,2-Ethanediol
measured-metric: solubility

CC(CC(=O)O)[C@H]1CCC2[C@H]3C(CC[C@@]21C)[C@@]1(C)CCC(O)C[C@H]1C[C@@H]3O (stereo partly shown) [Nor-UDCA] | < 14 mg/mL

----------
- method-notes: Qualitative solubility determination of Nor-UDCA with 20 solvents
- Assay type: physicochemical
- assay-setup: organic solvent or mixture, thermodynamic from solid; solvent Acetone
- Protocol: The polymorph screening study was carried out in two phases. In Phase 1, the synthesized Nor-UDCA, designated Form A, was characterised by XRPD, digital imaging, thermal analysis (DSC and TGMS). The purity of the material was checked by HPLC/RI. […] Additionally, the solids recovered by evaporation of solutions used in the solubility experiments were analyzed by XRPD and digital imaging to obtain information on the potential form formation of new forms of Nor-UDCA (see Table 2). […]
measured-metric: solubility

CC(CC(=O)O)[C@H]1CCC2[C@H]3C(CC[C@@]21C)[C@@]1(C)CCC(O)C[C@H]1C[C@@H]3O (stereo partly shown) | < 14 mg/mL

----------
- method-notes: Qualitative solubility determination of Nor-UDCA with 20 solvents
- Type: physicochemical
- assay-setup: organic solvent or mixture, thermodynamic from solid; solvent Dimethylsulfoxide
measured-metric: solubility (mg/mL)

CC(CC(=O)O)[C@H]1CCC2[C@H]3C(CC[C@@]21C)[C@@]1(C)CCC(O)C[C@H]1C[C@@H]3O (stereo partly shown) | 207
